Answer each item with its documented pIC50.
target.or.system: PI3K (Homo sapiens, UniProt P42336)
Construct: PI3 Kinase α IC50; other: PI3 Kinase α; other: PI3 Kinase α isoform, fluorescence polarization
Sequence (P42336 whole entry, canonical isoform): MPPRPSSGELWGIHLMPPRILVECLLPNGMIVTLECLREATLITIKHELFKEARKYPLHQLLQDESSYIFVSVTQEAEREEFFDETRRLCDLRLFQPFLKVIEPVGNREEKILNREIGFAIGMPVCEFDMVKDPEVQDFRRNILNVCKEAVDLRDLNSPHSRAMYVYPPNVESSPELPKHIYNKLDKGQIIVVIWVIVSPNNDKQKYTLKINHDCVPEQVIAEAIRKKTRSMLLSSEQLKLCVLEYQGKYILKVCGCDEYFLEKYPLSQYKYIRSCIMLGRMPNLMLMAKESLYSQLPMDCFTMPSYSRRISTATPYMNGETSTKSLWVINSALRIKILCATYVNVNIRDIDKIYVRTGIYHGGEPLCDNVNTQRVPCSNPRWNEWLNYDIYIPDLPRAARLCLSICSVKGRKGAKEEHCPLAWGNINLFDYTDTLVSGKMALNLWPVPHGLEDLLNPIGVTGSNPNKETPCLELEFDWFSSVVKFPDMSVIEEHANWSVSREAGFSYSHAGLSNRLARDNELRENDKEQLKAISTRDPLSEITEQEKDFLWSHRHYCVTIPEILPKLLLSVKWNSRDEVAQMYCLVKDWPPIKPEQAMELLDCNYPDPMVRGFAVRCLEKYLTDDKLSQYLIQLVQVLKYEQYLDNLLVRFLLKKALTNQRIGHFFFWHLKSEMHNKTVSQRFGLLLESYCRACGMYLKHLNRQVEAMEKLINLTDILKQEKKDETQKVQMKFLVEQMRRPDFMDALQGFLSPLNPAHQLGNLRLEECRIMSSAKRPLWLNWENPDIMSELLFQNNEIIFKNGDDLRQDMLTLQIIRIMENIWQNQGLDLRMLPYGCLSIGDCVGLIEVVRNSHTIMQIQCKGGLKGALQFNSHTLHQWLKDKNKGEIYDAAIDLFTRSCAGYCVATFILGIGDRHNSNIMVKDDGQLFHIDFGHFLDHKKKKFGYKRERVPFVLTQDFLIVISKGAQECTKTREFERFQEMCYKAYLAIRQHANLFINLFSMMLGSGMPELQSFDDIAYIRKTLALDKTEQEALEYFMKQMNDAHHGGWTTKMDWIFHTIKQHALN
protocol: Fluorescence polarization assay for PI3K
Format: biochemical
condition: PI3 Kinase α; read-out: PI3 Kinase α IC50
Conceptually, pIC50 converts a concentration in mol/L into minus its log10.

Supply measured pIC50 of `COC(=O)Nc1ccc(-c2nc(N3CC4CCC(C3)O4)c3cnn(C4CCC(=O)CC4)c3n2)cc1` in your reply. 5.41

Entry `O=C(Nc1ccc(-c2nc(N3CC4CCC(C3)O4)c3cnn(C4CCN(Cc5ccccc5)CC4)c3n2)cc1)OCCO` needs its pIC50 filled in; supply it. 5.77

Answer with the recorded pIC50 of O=C(Nc1ccc(-c2nc(N3CC4CCC(C3)O4)c3cnn(C4CCCCO4)c3n2)cc1)Nc1cccnc1 (stereo not shown) only. 6.39

Identify pIC50 associated with the compound `CN(C)c1cccc(NC(=O)Nc2ccc(-c3nc(N4CC5CCC(C4)O5)c4cnn(CC(F)(F)F)c4n3)cc2)c1` 6.46

Give pIC50 for `CN1CCN(c2ccc(NC(=O)Nc3ccc(-c4nc(N5CC6CCC(C5)O6)c5cnn(C)c5n4)cc3)cc2)CC1` 7.15

Identify the reported pIC50 for the following entry. `CC(C)n1ncc2c(N3CC4CCC(C3)O4)nc(-c3ccc(NC(=O)Nc4ccccc4)cc3)nc21` 7.52

Tell me measured pIC50 for `CCOC(=O)N1CCC(n2ncc3c(N4CC5CCC(C4)O5)nc(-c4ccc(NC(=O)NC5CCN(C(=O)OC(C)(C)C)CC5)cc4)nc32)CC1` please. 5.06

* * *

target.or.system: Human mTOR (FLAG-TOR) (Homo sapiens, UniProt P42345)
Construct: FLAG
protocol: Human mTOR kinase assay with purified enzyme, DELFIA format
Format: biochemical
endpoint: IC50 (nM)
Give the quantity in nM, number only.

Tell me its IC50 given `O=C(Nc1ccc(-c2nc(N3CC4CCC(C3)O4)c3cnn(CCO)c3n2)cc1)NC1CC1` as the entry. 2.85

Give recorded IC50. `CNC(=O)Nc1ccc(-c2nc(N3CC4CCC(C3)O4)c3cnn(CCF)c3n2)cc1` 0.95

Give the reported IC50 for this compound. `O=C(Nc1ccc(-c2nc(N3CC4CCC(C3)O4)c3cnn(C4CCC5(CC4)OCCO5)c3n2)cc1)OCCO` 0.5

In one line, give reported IC50 of the entry `N#CCCn1ncc2c(N3CC4CCC(C3)O4)nc(-c3ccc(NC(=O)Nc4ccc(N5CCOCC5)cc4)cc3)nc21` . 0.235

* * *

target.or.system: PI3K (Homo sapiens, UniProt P42336)
Construct: PI3 Kinase α IC50; other: PI3 Kinase α; other: PI3 Kinase α isoform, fluorescence polarization
protocol: Fluorescence polarization assay for PI3K
Assay type: biochemical
condition: PI3 Kinase α; read-out: PI3 Kinase α IC50
I'd be grateful if you could share measured IC50 for these entries.

Fill in: IC50 on PI3K (Homo sapiens, UniProt P42336), entry `CNC(=O)Nc1ccc(-c2nc(N3CC4CCC(C3)O4)c3cnn(CCC#N)c3n2)cc1` 726 nM

Param request: IC50 | system PI3K (Homo sapiens, UniProt P42336) | item `CN1CCN(c2ccc(NC(=O)Nc3ccc(-c4nc(N5CC6CCC(C5)O6)c5cnn(C)c5n4)cc3)cn2)CC1` 187 nM

Check PI3K (Homo sapiens, UniProt P42336) data and give IC50 for `O=C(Nc1ccc(-c2nc(N3CC4CCC(C3)O4)c3cnn(CC(F)(F)F)c3n2)cc1)Nc1ccc(N2CCOCC2)cc1` . 1000 nM

Enter recorded IC50 with PI3K (Homo sapiens, UniProt P42336) for `N#CCCn1ncc2c(N3CC4CCC(C3)O4)nc(-c3ccc(NC(=O)Nc4ccc(CCO)cc4)cc3)nc21` here. 44 nM

Report value only: IC50, PI3K (Homo sapiens, UniProt P42336), `CC(C)n1ncc2c(N3CC4CCC(C3)O4)nc(-c3ccc(NC(=O)OCCO)cc3)nc21` 831 nM

Using PI3K (Homo sapiens, UniProt P42336) as the test system, report measured IC50 of `CN(C)CCOc1ccc(NC(=O)Nc2ccc(-c3nc(N4CC5CCC(C4)O5)c4cnn(CCC#N)c4n3)cc2)cc1` . 155 nM

Answer with IC50 of `Cn1ncc2c(N3CC4CCC(C3)O4)nc(-c3ccc(NC(=O)NC4CC4)cc3)nc21` measured for PI3K (Homo sapiens, UniProt P42336). 845 nM

Give measured IC50 for `CN1CCN(c2ccc(NC(=O)Nc3ccc(-c4nc(N5CC6CCC(C5)O6)c5cnn(CCC#N)c5n4)cc3)cc2)CC1` (PI3K (Homo sapiens, UniProt P42336)). 74 nM

State measured IC50 of the compound `CCn1ncc2c(N3CC4CCC(C3)O4)nc(-c3ccc(NC(=O)NCC(=O)NCCN(C)C)cc3)nc21` with PI3K (Homo sapiens, UniProt P42336). 311 nM

Name the recorded IC50 of CNC(=O)Nc1ccc(-c2nc(N3CC4CCC(C3)O4)c3cnn(C4CCC(O)CC4)c3n2)cc1 (stereo not drawn) [Example 107] , assay system PI3K (Homo sapiens, UniProt P42336). 1310 nM

# return IC50 of `Nc1cccc(COC(=O)Nc2ccc(-c3nc(N4CC5CCC(C4)O5)c4cnn(CC(F)(F)F)c4n3)cc2)c1` (system: PI3K (Homo sapiens, UniProt P42336)) 9650 nM

Specify the recorded IC50 for `CCn1ncc2c(N3CC4CCC(C3)O4)nc(-c3ccc(NC(=O)NCCC(=O)NCCN(C)C)cc3)nc21` , system: PI3K (Homo sapiens, UniProt P42336). 1830 nM

// output IC50; input `CN1CCN(c2ccc(NC(=O)Nc3ccc(-c4nc(N5C6CCC5COC6)c5cnn(CC(F)(F)F)c5n4)cc3)cc2)CC1` ; system PI3K (Homo sapiens, UniProt P42336) 371 nM

Tell me its IC50 on PI3K (Homo sapiens, UniProt P42336): `CCOC(=O)Nc1ccc(-c2nc(N3CC4CCC(C3)O4)c3cnn(CCO)c3n2)cc1` 1860 nM

Fill in IC50 for `CCNC(=O)Nc1ccc(-c2nc(N3CC4CCC(C3)O4)c3cnn(CCF)c3n2)cc1` tested with PI3K (Homo sapiens, UniProt P42336). 1360 nM

* * *

target.or.system: Human mTOR (FLAG-TOR) (Homo sapiens, UniProt P42345)
Construct: FLAG
protocol: Human mTOR kinase assay with purified enzyme, DELFIA format
Type: biochemical
Give IC50 for every item shown.
Give just the number in nM; leave the unit off.

Name the recorded IC50 of the molecule listed here: `O=C(NCCO)Nc1ccc(-c2nc(N3CC4CCC(C3)O4)c3cnn(C4CCC5(CC4)OCCO5)c3n2)cc1` 0.235

Tell us which IC50 value is on record for `COC(=O)N1CCC(n2ncc3c(N4CC5CCC(C4)O5)nc(-c4ccc(NC(=O)OCCN)cc4)nc32)CC1` 36.5

Return reported IC50. Input molecule: `N#CCCn1ncc2c(N3CC4CCC(C3)O4)nc(-c3ccc(NC(=O)Nc4ccc(N5CCOCC5)nc4)cc3)nc21` 0.265

Please report IC50 for the following molecule: `O=C(Nc1ccc(-c2nc(N3CC4CCC(C3)O4)c3cnn(C4CCN(CC(F)(F)F)CC4)c3n2)cc1)OCCO` 2.25

For the molecule O=C(Nc1ccncc1)Nc1ccc(-c2nc(N3CC4CCC(C3)O4)c3cnn(CC(F)(F)F)c3n2)cc1 [Example 5] , give its measured IC50 value. 0.19

For `CN(C)c1ccc(NC(=O)Nc2ccc(-c3nc(N4CC5CCC(C4)O5)c4cnn(CCF)c4n3)cc2)cc1` , write its IC50. 0.655

Fill in IC50 for record `O=C(NCCF)Nc1ccc(-c2nc(N3CC4CCC(C3)O4)c3cnn(C4CCC5(CC4)OCCO5)c3n2)cc1` 0.225

* * *

target.or.system: PI3K (Homo sapiens)
Construct: PI3 Kinase α IC50; other: PI3 Kinase α; other: PI3 Kinase α isoform, fluorescence polarization
protocol: Fluorescence polarization assay for PI3K
Type: biochemical
condition: PI3 Kinase α; read-out: PI3 Kinase α IC50
Please respond with reported pIC50 for every item in the list.
pIC50 is defined as minus the log10 of a concentration measured in mol/L.

Return pIC50 for the following compound: `O=C1CCC(n2ncc3c(N4CC5CCC(C4)O5)nc(-c4ccc(NC(=O)OCCO)cc4)nc32)CC1` 5.67

Look up and report measured pIC50 for this entry: `Cn1ncc2c(N3CC4CCC(C3)O4)nc(-c3ccc(NC(=O)Nc4ccc(S(=O)(=O)CCN5CCCCC5)cc4)cc3)nc21` 6.94

Report pIC50 for `O=C(Nc1ccc(CO)cc1)Nc1ccc(-c2nc(N3CC4CCC(C3)O4)c3cnn(CCF)c3n2)cc1` 7.47

Retrieve pIC50 measured for `O=C(Nc1ccc(-c2nc(N3CC4CCC(C3)O4)c3cnn(CCO)c3n2)cc1)OCCO` and print it. 5.73

Annotate the compound `CCn1ncc2c(N3CC4CCC(C3)O4)nc(-c3ccc(NC(=O)NCCN4CCOCC4)cc3)nc21` with its measured pIC50. 6.32

Provide measured pIC50 value, entry: `CCNC(=O)Nc1ccc(-c2nc(N3CC4CCC(C3)O4)c3cnn(C4CCN(C(=O)OC(C)(C)C)CC4)c3n2)cc1` 5.63

Fill in pIC50 for record `CC(C)(C)n1ncc2c(N3CC4CCC(C3)O4)nc(-c3ccc(NC(=O)NC4CC4)cc3)nc21` 5.94

Complete the entry with pIC50 for `CCn1ncc2c(N3CC4CCC(C3)O4)nc(-c3ccc(NC(=O)OCCO)cc3)nc21` 5.79

# return recorded pIC50 for input `CC(C)(C)n1ncc2c(N3CC4CCC(C3)O4)nc(-c3ccc(NC(=O)Nc4ccccc4)cc3)nc21` 6.89

Give the value of pIC50 reported for the following: `CCn1ncc2c(N3CC4CCC(C3)O4)nc(-c3ccc(NC(=O)Nc4ccc(Cl)cc4)cc3)nc21` 6.33

Complete the entry with pIC50 for `COC(=O)N1CCC(n2ncc3c(N4CC5CCC(C4)O5)nc(-c4ccc(NC(=O)OCCN(C)C)cc4)nc32)CC1` 5.30

Report pIC50 for `O=C(Nc1ccc(-c2nc(N3CC4CCC(C3)O4)c3cnn(CC(F)(F)F)c3n2)cc1)Nc1cccnc1` 6.46

For `Cn1ncc2c(N3CC4CCC(C3)O4)nc(-c3cccc(O)c3)nc21` , write its pIC50. 6.04
